The following molecules are shown together with reported log2 ratio of Biotin-Ahx-Ub-VS probe labelling values.
Biological target: USP48 (UniProt Q86UV5)
Sequence (whole entry): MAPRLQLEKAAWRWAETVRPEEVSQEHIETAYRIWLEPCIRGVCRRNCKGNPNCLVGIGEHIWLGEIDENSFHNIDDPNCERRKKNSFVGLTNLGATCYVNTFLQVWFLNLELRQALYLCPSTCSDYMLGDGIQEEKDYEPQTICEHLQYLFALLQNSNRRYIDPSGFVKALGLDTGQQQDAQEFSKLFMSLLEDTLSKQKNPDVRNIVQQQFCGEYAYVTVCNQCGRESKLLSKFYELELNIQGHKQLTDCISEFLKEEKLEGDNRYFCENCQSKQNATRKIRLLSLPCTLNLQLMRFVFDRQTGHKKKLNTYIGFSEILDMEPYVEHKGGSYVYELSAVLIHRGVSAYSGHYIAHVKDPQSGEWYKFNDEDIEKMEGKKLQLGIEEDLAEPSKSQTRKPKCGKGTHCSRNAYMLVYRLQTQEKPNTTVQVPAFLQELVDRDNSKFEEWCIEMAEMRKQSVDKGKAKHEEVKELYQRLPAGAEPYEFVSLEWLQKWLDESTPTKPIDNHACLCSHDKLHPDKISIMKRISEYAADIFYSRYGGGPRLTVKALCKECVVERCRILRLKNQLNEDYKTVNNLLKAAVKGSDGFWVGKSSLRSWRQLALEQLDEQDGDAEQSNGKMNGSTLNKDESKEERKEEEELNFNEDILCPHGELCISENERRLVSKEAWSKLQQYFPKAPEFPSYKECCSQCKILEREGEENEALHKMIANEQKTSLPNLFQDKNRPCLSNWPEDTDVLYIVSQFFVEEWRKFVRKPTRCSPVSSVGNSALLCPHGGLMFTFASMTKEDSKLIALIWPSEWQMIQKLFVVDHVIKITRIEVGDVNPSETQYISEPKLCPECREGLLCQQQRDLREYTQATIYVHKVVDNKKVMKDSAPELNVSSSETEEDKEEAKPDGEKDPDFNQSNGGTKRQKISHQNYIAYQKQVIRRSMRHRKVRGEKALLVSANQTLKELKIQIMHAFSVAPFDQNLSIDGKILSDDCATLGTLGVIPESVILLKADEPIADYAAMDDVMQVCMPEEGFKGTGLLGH
Assay: log2 ratio of Biotin-Ahx-Ub-VS probe labelling (fragment/DMSO); higher = less target engagement (more negative = stronger competition), active = hit call of the paper (q ≤ 0.05, log2 ratio ≤ -1)
Details: compound concentration: 200 uM; treatment time: 3 h
Result Type: log2 ratio of Biotin-Ahx-Ub-VS probe labelling

Molecule	Observed
O=C(CCl)N1CCN(C(=O)Nc2ccccc2)CC1	-0.158
O=C(CCl)NC(Cn1ccccc1=O)c1ccccc1 (stereo not given)	0.0761
O=C(CCl)NC1(c2ccc3c(c2)OCCO3)CCCC1	-0.261
O=C(CCl)N(C1CCCC1)C1CCS(=O)(=O)C1 (stereo not given)	-1.18
O=C(CCl)NCc1noc(C2CC2)n1	-0.135
Cl.O=C(CCl)N[C@H]1C[C@@H](n2cccn2)C1	0.0582
Cl.O=C(CCl)NCc1cc2c(nc1O)CCCC2	-0.169
O=C(CCl)Nc1ccc2c(c1)OC(F)(F)O2	-0.476
O=C(O)C1Cc2ccccc2CN1C(=O)CCl (stereo not given)	-0.543
CN(CCC(O)c1ccc(Br)cc1)C(=O)CCl (stereo not given)	-0.691
Cc1c(NC(=O)CCl)c(=O)n(-c2ccccc2)n1C	-0.0273
O=C(CCl)NCc1cccc(F)c1	-0.0573
O=C(CCl)NCCC1COCCO1 (stereo not given)	-0.171
Cc1cnc2[nH]cc(CCNC(=O)CCl)c2c1	0.00232
O=C(CCl)NCCc1ccc2c(c1)OCCO2	-0.413
O=C(CCl)N1CCOCC1C1CC1 (stereo not given)	0.0155
O=C(CCl)N1CCOC2(CCC2)CC1	-0.374
O=C(CCl)N1CCN(C(=O)N2CCCCC2)CC1	-0.949
O=C(CCl)N1CCC(O)(Cc2ccc(F)cc2)C1 (stereo not given)	-0.434
O=C(CCl)NCc1ccc2c(c1)OCO2	-0.33

====

The following compounds are shown together with reported log2 ratio of Biotin-Ahx-Ub-VS probe labelling values.
biological target: ATXN3 (UniProt P54252); experiment: log2 ratio of Biotin-Ahx-Ub-VS probe labelling (fragment/DMSO); higher = less target engagement (more negative = stronger competition), active = hit call of the paper (q ≤ 0.05, log2 ratio ≤ -1); details: compound concentration: 200 uM; treatment time: 3 h
Sequence (P54252 whole entry, the tested form may be a part): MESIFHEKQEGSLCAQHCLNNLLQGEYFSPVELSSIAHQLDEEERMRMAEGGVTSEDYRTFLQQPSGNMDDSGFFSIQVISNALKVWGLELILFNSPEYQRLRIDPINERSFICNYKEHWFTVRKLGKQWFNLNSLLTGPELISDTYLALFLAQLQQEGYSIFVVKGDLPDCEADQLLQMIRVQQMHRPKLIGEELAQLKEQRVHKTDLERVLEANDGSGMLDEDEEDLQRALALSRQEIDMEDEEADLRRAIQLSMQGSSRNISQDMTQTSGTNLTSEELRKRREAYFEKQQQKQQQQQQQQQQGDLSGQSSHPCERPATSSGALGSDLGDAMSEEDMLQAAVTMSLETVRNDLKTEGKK
Result Type: log2 ratio of Biotin-Ahx-Ub-VS probe labelling

Compound	Observed
O=C(CCl)N1CCC[C@@H]1c1ccon1	-1.28
O=C(CCl)Nc1cccc(C(=O)N2CCSCC2)c1	-0.874
O=C(CCl)N1CCC(c2noc3cc(F)ccc23)CC1	-0.734
NS(=O)(=O)c1ccc(Cl)c(NC(=O)CCl)c1	-0.697
C[C@@H](NC(=O)CCl)c1cccc(C#N)c1	-0.463
NC(=O)C1CCCN(C(=O)CCl)C1 (stereo not given)	-0.171
Cc1cccnc1NC(=O)C1CCN(C(=O)CCl)CC1.Cl	-0.281
Cc1ccc(CC(NC(=O)CCl)c2ccccn2)cc1.Cl (stereo not given)	0.249
N#Cc1ccc(Cl)cc1NC(=O)CCl	-0.113
Cl.Cn1c(CNC(=O)CCl)nc2cccnc21	-0.424
O=C(CCl)Nc1ccc(F)cc1Cl	-0.598
O=C(CCl)NC(Cn1ccccc1=O)c1ccccc1 (stereo not given)	-0.00539
N#Cc1cnn(-c2ccccc2)c1NC(=O)CCl	-1.2
O=C(O)C1Cc2ccccc2CN1C(=O)CCl (stereo not given)	-0.269
O=C(CCl)N1CCC(c2nc3ccccc3o2)CC1	-0.627

====

The following molecules are shown together with reported log2 ratio of Biotin-Ahx-Ub-VS probe labelling values.
biological target: USP38 (UniProt Q8NB14); assay: log2 ratio of Biotin-Ahx-Ub-VS probe labelling (fragment/DMSO); higher = less target engagement (more negative = stronger competition), active = hit call of the paper (q ≤ 0.05, log2 ratio ≤ -1); details: compound concentration: 200 uM; treatment time: 3 h
Sequence (Q8NB14 whole entry, the tested form may be a part): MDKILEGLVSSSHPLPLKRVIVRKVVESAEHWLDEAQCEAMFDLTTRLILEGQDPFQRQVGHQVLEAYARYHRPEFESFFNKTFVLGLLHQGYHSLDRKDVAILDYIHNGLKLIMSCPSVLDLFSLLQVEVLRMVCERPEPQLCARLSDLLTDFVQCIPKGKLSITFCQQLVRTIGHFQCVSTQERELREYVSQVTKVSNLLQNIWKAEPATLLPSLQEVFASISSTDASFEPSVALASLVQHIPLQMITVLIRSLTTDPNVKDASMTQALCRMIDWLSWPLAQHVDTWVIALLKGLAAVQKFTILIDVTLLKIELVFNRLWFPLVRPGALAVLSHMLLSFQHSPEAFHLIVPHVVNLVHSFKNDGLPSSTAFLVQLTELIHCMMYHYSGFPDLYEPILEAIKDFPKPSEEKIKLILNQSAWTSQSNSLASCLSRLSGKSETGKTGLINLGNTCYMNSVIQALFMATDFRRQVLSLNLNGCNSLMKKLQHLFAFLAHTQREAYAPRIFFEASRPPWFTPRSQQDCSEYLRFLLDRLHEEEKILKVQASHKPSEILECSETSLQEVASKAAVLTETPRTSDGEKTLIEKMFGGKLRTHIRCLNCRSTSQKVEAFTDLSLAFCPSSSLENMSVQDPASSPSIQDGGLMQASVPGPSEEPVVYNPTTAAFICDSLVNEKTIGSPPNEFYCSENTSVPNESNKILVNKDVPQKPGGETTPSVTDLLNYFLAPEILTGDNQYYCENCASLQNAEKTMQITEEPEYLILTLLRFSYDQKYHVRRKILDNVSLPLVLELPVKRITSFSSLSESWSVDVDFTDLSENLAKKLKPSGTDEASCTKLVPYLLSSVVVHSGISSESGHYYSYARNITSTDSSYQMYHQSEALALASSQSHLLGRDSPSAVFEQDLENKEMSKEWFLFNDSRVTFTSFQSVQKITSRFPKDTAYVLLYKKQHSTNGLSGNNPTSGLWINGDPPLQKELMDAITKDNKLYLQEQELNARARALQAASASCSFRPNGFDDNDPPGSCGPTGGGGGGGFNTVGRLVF
Result Type: log2 ratio of Biotin-Ahx-Ub-VS probe labelling

Molecule	Observed
Cc1noc(N2CCN(C(=O)CCl)CC2)n1.Cl	-0.0491
C[C@H]1CN(C(=O)CCl)CCN1C(=O)c1cnn(C)c1.Cl	-0.0453
O=C(CCl)N1CCN(C(=O)Nc2ccccc2)CC1	0.184
Cl.Cn1ncc2c1CCCC2NC(=O)CCl (configuration not stated)	-0.175
Cl.O=C(CCl)N1CC(c2ccc(Br)cn2)C1	-0.0763
O=C(CCl)NCCc1ccc2c(c1)OCCO2	-0.0664
Cl.O=C(CCl)N1CCn2cncc2C1	-0.142
O=C(CCl)N1CCOC2(CCC2)C1	0.253
O=C(CCl)NCc1ccc(Cl)cc1	-0.0243
Cl.O=C(CN1CCN(C(=O)CCl)CC1)Nc1ccc(F)cc1	-0.043
CC1Cc2ccccc2N1C(=O)CCl (configuration not stated)	-0.00784
O=C(CCl)N1c2ccccc2NC(=O)C12CCCC2	0.18
Cl.Cn1ncc2c1CC(NC(=O)CCl)CC2 (configuration not stated)	0.034
Cc1cccnc1NC(=O)C1CCN(C(=O)CCl)CC1.Cl	-0.157
O=C(CCl)N1CCC(C(=O)N2CCCC2)CC1	-0.135
COCC1C=CCCN1C(=O)CCl (configuration not stated)	-0.157
O=C(CCl)NCc1cccc(N2CCCC2=O)c1	-0.128
COc1ccc(-c2csc(NC(=O)CCl)n2)cc1	-0.188
Cn1cc(CN(Cc2ccc(Cl)cc2)C(=O)CCl)cn1	-0.245
Cc1cccc(C(CNC(=O)CCl)N2CCOCC2)c1.Cl (configuration not stated)	-0.0229
Cc1nc(CC2CCN(C(=O)CCl)CC2)no1	-0.544
Cc1ccc(CN(C)C(=O)CCl)o1	-0.0916

====

molecular target: USP36 (UniProt Q9P275); test: log2 ratio of Biotin-Ahx-Ub-VS probe labelling (fragment/DMSO); higher = less target engagement (more negative = stronger competition), active = hit call of the paper (q ≤ 0.05, log2 ratio ≤ -1); conditions: compound concentration: 200 uM; treatment time: 3 h
Sequence (Q9P275 whole entry, the tested form may be a part): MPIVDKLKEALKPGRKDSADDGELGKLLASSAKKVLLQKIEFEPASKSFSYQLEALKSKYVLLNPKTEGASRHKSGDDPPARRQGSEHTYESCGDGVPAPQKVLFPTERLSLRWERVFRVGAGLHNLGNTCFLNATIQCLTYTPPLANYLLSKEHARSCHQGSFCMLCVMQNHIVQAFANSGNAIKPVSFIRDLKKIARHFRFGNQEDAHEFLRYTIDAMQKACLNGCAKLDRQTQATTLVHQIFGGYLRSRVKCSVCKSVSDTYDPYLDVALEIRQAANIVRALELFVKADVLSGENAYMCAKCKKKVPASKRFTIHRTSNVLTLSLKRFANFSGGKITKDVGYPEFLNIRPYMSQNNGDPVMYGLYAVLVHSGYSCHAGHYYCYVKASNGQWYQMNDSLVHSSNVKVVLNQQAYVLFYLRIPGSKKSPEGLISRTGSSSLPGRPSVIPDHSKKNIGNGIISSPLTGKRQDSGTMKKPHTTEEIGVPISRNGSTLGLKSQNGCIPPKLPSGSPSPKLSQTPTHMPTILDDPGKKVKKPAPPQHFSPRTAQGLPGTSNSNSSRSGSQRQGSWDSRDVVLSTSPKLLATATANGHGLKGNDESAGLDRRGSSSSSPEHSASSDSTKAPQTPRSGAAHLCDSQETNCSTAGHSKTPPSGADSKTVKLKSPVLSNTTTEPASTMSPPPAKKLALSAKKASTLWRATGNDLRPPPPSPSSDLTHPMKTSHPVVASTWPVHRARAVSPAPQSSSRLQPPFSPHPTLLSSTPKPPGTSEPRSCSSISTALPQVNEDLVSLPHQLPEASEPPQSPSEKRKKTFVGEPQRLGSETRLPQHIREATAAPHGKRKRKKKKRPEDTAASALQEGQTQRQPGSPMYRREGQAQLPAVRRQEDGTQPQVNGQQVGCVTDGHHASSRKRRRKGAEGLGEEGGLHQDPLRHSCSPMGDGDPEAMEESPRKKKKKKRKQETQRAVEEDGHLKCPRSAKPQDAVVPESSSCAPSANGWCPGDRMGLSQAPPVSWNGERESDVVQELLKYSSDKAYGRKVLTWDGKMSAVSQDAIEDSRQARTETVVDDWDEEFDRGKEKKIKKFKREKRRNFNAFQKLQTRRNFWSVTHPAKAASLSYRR
Result Type: log2 ratio of Biotin-Ahx-Ub-VS probe labelling

Compound	Observed
Cc1ccc(C)c(NC(=O)CCl)c1	-0.1
CN(CCC(O)c1ccc(Br)cc1)C(=O)CCl (stereo not drawn)	-0.0809
Cc1cccnc1NC(=O)C1CCN(C(=O)CCl)CC1.Cl	-0.102

====

The following molecules are shown together with reported log2 ratio of Biotin-Ahx-Ub-VS probe labelling values.
molecular target: USP54 (UniProt Q70EL1); experiment: log2 ratio of Biotin-Ahx-Ub-VS probe labelling (fragment/DMSO); higher = less target engagement (more negative = stronger competition), active = hit call of the paper (q ≤ 0.05, log2 ratio ≤ -1); conditions: compound concentration: 200 uM; treatment time: 3 h
Sequence (Q70EL1 whole entry, the tested form may be a part): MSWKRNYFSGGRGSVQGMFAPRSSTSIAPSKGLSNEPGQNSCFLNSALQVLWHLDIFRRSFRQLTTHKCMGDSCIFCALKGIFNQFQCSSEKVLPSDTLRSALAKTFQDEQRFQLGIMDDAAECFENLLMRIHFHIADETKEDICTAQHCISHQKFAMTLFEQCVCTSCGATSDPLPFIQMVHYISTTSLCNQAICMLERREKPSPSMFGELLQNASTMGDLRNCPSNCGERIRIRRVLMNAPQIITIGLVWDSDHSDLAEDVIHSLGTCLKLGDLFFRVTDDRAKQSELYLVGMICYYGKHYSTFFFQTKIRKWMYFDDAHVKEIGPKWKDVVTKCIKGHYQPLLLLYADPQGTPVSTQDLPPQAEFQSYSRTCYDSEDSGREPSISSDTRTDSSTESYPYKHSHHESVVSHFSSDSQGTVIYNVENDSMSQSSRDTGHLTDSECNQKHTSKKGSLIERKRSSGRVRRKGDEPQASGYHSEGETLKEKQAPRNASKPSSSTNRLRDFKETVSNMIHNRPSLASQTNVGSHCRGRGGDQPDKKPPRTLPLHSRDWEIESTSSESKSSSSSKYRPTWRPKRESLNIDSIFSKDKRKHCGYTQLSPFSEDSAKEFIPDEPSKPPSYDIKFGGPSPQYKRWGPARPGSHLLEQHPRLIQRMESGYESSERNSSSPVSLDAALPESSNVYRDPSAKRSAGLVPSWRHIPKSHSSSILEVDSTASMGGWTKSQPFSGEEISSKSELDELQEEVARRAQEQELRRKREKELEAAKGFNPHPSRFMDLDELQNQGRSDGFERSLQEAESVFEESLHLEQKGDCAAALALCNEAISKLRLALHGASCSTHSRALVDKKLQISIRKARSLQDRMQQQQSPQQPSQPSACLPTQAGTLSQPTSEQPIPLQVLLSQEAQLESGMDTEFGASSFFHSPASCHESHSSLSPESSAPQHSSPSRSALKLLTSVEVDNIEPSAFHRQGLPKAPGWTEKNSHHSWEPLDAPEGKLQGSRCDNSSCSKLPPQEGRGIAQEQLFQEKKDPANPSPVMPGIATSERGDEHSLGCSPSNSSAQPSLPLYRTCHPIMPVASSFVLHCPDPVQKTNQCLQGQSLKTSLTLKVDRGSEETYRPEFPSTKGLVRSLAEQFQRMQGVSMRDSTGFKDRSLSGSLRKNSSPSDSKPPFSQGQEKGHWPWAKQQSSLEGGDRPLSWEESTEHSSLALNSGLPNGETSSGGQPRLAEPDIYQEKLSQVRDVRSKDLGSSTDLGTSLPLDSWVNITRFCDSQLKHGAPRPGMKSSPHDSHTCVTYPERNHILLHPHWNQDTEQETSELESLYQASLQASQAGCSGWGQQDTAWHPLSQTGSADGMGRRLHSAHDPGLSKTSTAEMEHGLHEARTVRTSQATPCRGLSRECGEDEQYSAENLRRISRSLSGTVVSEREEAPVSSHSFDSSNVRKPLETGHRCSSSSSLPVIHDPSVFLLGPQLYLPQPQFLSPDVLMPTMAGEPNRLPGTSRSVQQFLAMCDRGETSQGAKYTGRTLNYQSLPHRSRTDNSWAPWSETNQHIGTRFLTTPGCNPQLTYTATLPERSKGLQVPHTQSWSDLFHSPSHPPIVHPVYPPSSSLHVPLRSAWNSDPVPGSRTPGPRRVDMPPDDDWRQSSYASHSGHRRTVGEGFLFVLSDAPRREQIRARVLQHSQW
Result Type: log2 ratio of Biotin-Ahx-Ub-VS probe labelling

Molecule Smiles	Observed
CS(=O)(=O)c1ccc(NC(=O)CCl)cc1	0.431
CCc1c[nH]c(CNC(=O)CCl)n1.Cl	0.304
O=C(CCl)Nc1cccc(C(=O)N2CCSCC2)c1	-0.177
Cl.O=C(CCl)N1CCn2ncc(O)c2C1	0.44
CCN(Cc1ccc(C#N)cc1F)C(=O)CCl	0.521
